Each recorded value in this set is attributed to ChEMBL document CHEMBL4364251.

Assignment: determine reported IC50 for the given compounds.
# System: RKO
# experimental.details: Antiproliferative activity against human RKO cells incubated for 48 hrs by MTT assay
# Format: functional, cell-based

IN: Entry Fc1cccc(Nc2ccnc3cc(OCc4ccccc4)ccc23)c1 : reported IC50 = ?
OUT: > 10 µM

IN: Please give the result for CCOc1ccc2c(Nc3cccc(OC)c3)ccnc2c1 too.
OUT: > 10 µM

IN: Queued: O=[N+]([O-])c1cccc(Nc2ccnc3cc(OCc4ccccc4)ccc23)c1
OUT: 9.68 µM

IN: And what about the compound C=CCOc1ccc2c(Nc3cccc(F)c3)ccnc2c1 ?
OUT: > 10 µM

IN: Try CCCCCCCCOc1ccc2c(Nc3cccc(OC)c3)ccnc2c1 next.
OUT: > 10 µM

IN: Same question, CCOc1ccc2c(Nc3cccc([N+](=O)[O-])c3)ccnc2c1 this time
OUT: > 10 µM
